# System: Panc-1 cells
# assayText: MTS assay
# conditionDetails: read-out: IC50 (cytotoxicity, MTS), 24 h
readoutName: IC50 (µM)
Number only, in µM; omit the unit.

compound: COC1=C2C[C@@H](C)C[C@H](OC)[C@H](O)[C@@H](C)/C=C(\C)[C@H](OC(N)=O)[C@@H](OC)/C=C\C=C(/C)C(=O)NC(=CC1=O)C2=O [geldanamycin, reference compound]
studySystem: Panc-1 cells
displayUnit: µM
experimentalValue: 8

Please find the next compound below.
QUERY: Please give the measured IC50 for this compound: CC1=C(O)C(=O)C=C2C1=CC=C1[C@@]2(C)CC[C@@]2(C)[C@@H]3C[C@](C)(C(=O)O)CC[C@]3(C)CC[C@]12C [celastrol]
RESULT: 3
